Test system: TTR
Assay: TTR editing in primary human hepatocytes transfected with Spy Cas9 mRNA and dgRNAs (Table 9)
Assay type: cell-based
Conditions: dgRNA co-transfected with Spy Cas9 mRNA (SEQ ID NO:2)
Recorded Metric: Avg % Deletion
Report the figure along with its unit, number first.

Solved cases below.
QUERY: // Avg % Deletion lookup, key: CCGUGGUGGAAUAGGAGUAG (tested as dual guide RNA, chemistry not given here) [CR003386]
RESULT: 0.13%

QUERY: Repeat with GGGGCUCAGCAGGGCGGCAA (tested as dual guide RNA, chemistry not given here) [CR003381]
RESULT: 0.73%

QUERY: Entry UCACAGAAACACUCACCGUA (tested as dual guide RNA, chemistry not given here) [CR005300] please
RESULT: 3.97%

QUERY: For CUGCUCCUCCUCUGCCUUGC (tested as dual guide RNA, chemistry not given here) [CR003335] then?
RESULT: 3.40%

QUERY: Try the sequence GCCGUGGUGGAAUAGGAGUA (tested as dual guide RNA, chemistry not given here) [CR003387]
RESULT: 0.03%

Continuing:
QUERY: I have this sequence here, UGUAGAAGGGAUAUACAAAG (tested as dual guide RNA, chemistry not given here) [CR003365] , and I need its recorded Avg % Deletion.
RESULT: 6.67%

QUERY: Also check CAGAGGACACUUGGAUUCAC (tested as dual guide RNA, chemistry not given here) [CR003343]
RESULT: 2.60%

QUERY: Subsequent entry: AGACACCAAAUCUUACUGGA (tested as dual guide RNA, chemistry not given here) [CR003367]
RESULT: 23.37%

* * *

Tested on: TTR
Assay: TTR editing in primary human hepatocytes transfected with Spy Cas9 protein (RNP) loaded with dgRNAs (Table 8)
Assay type: cell-based
Conditions: dgRNA transfected with Spy Cas9 protein (RNP)
Measured Avg % Deletion determines class: c1 = under 0.7%, c2 = from 0.7% up to 2%, c3 = 2% and over

Below are worked cases with known answers.
QUERY: Which of the defined bands does the recorded Avg % Deletion of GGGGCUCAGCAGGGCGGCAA (tested as dual guide RNA, chemistry not given here) [CR003381] sit within?
RESULT: c1

QUERY: # repeat for CCAGUCCAGCAAGGCAGAGG (tested as dual guide RNA, chemistry not given here) [CR003337]
RESULT: c2

More entries:
QUERY: // return the class label for ACUGAGGAGGAAUUUGUAGA (tested as dual guide RNA, chemistry not given here) [CR003363]
RESULT: c3

QUERY: Also CUGAGGAGGAAUUUGUAGAA (tested as dual guide RNA, chemistry not given here) [CR003364] ?
RESULT: c3

QUERY: CUCUGCAUGCUCAUGGAAUG (tested as dual guide RNA, chemistry not given here) [CR003369] ?
RESULT: c2

QUERY: Repeat for the following sequence: AUACCAGUCCAGCAAGGCAG (tested as dual guide RNA, chemistry not given here) [CR003338]
RESULT: c3

QUERY: Repeat with AAAGUUCUAGAUGCUGUCCG (tested as dual guide RNA, chemistry not given here) [CR003346]
RESULT: c2

QUERY: // query: AUAGGAGUAGGGGCUCAGCA (tested as dual guide RNA, chemistry not given here) [CR003383]
RESULT: c1

QUERY: Please do the same for CAUUGAUGGCAGGACUGCCU (tested as dual guide RNA, chemistry not given here) [CR003347] as well.
RESULT: c1

QUERY: Lookup CCCAGAGGCAAAUGGCUCCC (tested as dual guide RNA, chemistry not given here) [CR003355]
RESULT: c2

QUERY: Repeat with GGGAUUGGUGACGACAGCCG (tested as dual guide RNA, chemistry not given here) [CR003390]
RESULT: c1

QUERY: Could you do the same for GUGAGUCUGGAGAGCUGCAU (tested as dual guide RNA, chemistry not given here) [CR003360] , please?
RESULT: c2

QUERY: Cool, now UUCUUUGGCAACUUACCCAG (tested as dual guide RNA, chemistry not given here) [CR003357]
RESULT: c2

The measured values listed here are drawn from patent US11795460B2.
